Sourced from paper PMC12007089

For each record, write down the corresponding vmax.
Biological target: porcine pancreatic α-amylase (Sus scrofa)
Sequence (P00690 16-511): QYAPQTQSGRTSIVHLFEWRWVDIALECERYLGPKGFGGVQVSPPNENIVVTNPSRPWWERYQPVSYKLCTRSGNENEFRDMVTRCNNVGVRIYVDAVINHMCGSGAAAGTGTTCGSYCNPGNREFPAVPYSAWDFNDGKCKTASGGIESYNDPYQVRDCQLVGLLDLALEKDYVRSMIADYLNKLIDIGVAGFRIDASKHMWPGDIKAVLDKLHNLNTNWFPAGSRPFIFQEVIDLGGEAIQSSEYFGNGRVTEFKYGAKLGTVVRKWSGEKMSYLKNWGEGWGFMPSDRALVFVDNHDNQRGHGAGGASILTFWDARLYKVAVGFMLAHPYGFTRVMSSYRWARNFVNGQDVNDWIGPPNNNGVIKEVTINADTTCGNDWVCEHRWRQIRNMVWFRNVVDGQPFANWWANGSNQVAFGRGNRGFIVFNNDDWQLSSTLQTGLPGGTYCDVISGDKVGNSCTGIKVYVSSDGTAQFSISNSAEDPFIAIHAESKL
Test: Continuous α-amylase activity assay (starch hydrolysis) by ITC
Format: biochemical
Conditions: relative to control; 100 μM flavan-3-ol, 12 nM α-amylase, starch, 310 K, initial injection (inj. 1)
Please respond with the number in % and leave the unit unwritten.

Query: Which value of vmax has been reported for Oc1cc(O)c2c(c1)O[C@H](c1ccc(O)c(O)c1)[C@@H](O)C2 [CAT, (+)-Catechin] in the records?
Reply: 79

Query: // vmax lookup, key: Oc1cc(O)c2c(c1)O[C@H](c1ccc(O)c(O)c1)[C@H](O)C2 [EC, (−)-Epicatechin]
Reply: 78

Query: I would be grateful if you could share the reported vmax for Oc1cc(O)c2c(c1)O[C@H](c1ccc(O)c(O)c1)[C@H](O)[C@H]2c1c(O)cc(O)c2c1O[C@H](c1ccc(O)c(O)c1)[C@@H](O)C2 .
Reply: 66

Query: Data request, read-out vmax, for Oc1cc(O)c2c(c1)O[C@H](c1ccc(O)c(O)c1)[C@H](O)[C@H]2c1c(O)cc(O)c2c1O[C@H](c1ccc(O)c(O)c1)[C@H](O)C2
Reply: 62

Query: Field request: vmax | item: Oc1cc(O)c2c(c1)O[C@H](c1ccc(O)c(O)c1)[C@H](O)[C@H]2c1c(O)cc(O)c2c1O[C@H](c1ccc(O)c(O)c1)[C@H](O)[C@H]2c1c(O)cc(O)c2c1O[C@H](c1ccc(O)c(O)c1)[C@H](O)C2
Reply: 50
